- studyTarget: Legumain-like protease (Ixodes ricinus)
- Sequence (Q6PRC7 whole entry): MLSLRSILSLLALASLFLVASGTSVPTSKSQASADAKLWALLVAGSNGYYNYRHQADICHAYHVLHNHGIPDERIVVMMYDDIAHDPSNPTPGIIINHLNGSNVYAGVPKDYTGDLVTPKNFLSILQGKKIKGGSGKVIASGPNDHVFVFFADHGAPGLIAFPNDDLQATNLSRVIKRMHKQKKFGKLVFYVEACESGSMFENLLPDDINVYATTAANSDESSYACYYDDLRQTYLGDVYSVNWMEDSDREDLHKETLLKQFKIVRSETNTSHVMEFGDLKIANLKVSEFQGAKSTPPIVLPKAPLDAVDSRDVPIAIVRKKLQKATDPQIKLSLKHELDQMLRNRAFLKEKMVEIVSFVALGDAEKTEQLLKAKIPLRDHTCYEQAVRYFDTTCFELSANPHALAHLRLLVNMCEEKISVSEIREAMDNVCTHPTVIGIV
- assayComment: Inhibition of Ixodes ricinus asparaginyl endopeptidases
- experimentalConditions: read-out: IC50
pIC50: −log10 of the molar value.
Measured pIC50, listed per entry for reference.

molecule	prefixOperator	pIC50
CC(NC(=O)N1CCNCC1)C(=O)N[C@@H](C)C(=O)NN(CC(N)=O)C(=O)[C@H]1O[C@@H]1C(=O)N(Cc1ccccc1)Cc1ccccc1 (single isomer, unassigned)	=	7.96
C[C@H](NC(=O)N1CCCCC1)C(=O)NN(CC(N)=O)C(=O)/C=C/C(=O)N1CCc2ccccc2C1	=	6.82
C[C@H](NC(=O)[C@H](C)NC(=O)N1CCCCC1)C(=O)NN(CC(N)=O)C(=O)/C=C/C(=O)N(Cc1ccccc1)Cc1ccccc1	=	7.77
C[C@H](NC(=O)[C@@H](C)NC(=O)N1CCNCC1)C(=O)NN(CC(N)=O)C(=O)/C=C/C(=O)N(Cc1ccccc1)Cc1ccccc1	=	7.51
CC(NC(=O)N1CCCCC1)C(=O)N[C@@H](C)C(=O)NN(CC(N)=O)C(=O)[C@H]1O[C@@H]1C(=O)N(Cc1ccccc1)Cc1ccccc1 (single isomer, unassigned)	=	7.92
COc1ccc(CNC(=O)/C=C/C(=O)N(CC(N)=O)NC(=O)[C@H](C)NC(=O)N2CCOCC2)cc1OC	<	5.70
